# Tested on: UACC-257 melanoma
# ASSAY_METHOD_TEXT: NCI tumour cell line growth inhibition, 48 h
Item-by-item account of GI50

Worked cases, GI50 given:
{"columns": ["COMPOUND", "GI50"],
 "data": [
  ["O=C(c1cccs1)c1c(C(F)(F)F)n([O-])c2ccc(C(F)(F)F)cc2[n+]1=O", "1590 nM"],
  ["CC1(C)N=C(N)N=C(N)N1c1cccc(/C=C/C=C/c2cccc([N+](=O)[O-])c2)c1", "5420 nM"],
  ["O=C(Nc1n[nH]c2nc(-c3ccco3)c(Br)cc12)C1CC1", "> 25000 nM"],
  ["COc1ccc(/C=C2\\CN(C(=O)CCN3CCC(=NO)CC3)C/C(=C\\c3ccc(OC)cc3)C2=O)cc1", "2650 nM"],
  ["Nc1cccc2c1C(=O)N(C1CCC(=O)NC1=O)C2=O (stereo unspecified)", "> 100000 nM"]
]}

Enquiry: What does the data say about its GI50? Entry: N#C/C(=C\c1c(-c2ccccc2)[nH]c2ccccc12)C(=O)c1ccc(Cl)cc1
Return: 30200 nM

Enquiry: May I ask what GI50 has been recorded for Cc1cc(NC(=O)C2c3ccccc3C(=O)N(CC(C)C)C2c2cccs2)no1 (stereo unspecified) ?
Return: > 100000 nM

Enquiry: Look up GI50 for this compound: COc1ccccc1C(=O)/C=C/c1cc2cccc(OC)c2[nH]c1=O
Return: 1630 nM

Enquiry: What measured GI50 goes with COc1cc(-c2cc(C(=O)N3CCN(C(=O)c4ccccc4NCc4ccco4)CC3)nc3cc(-c4ccccc4)nn23)cc(OC)c1OC ?
Return: 3920 nM

Enquiry: Requested field: GI50. Item: O=[N+]([O-])c1ccc(N/N=C\c2cc(Cl)ccc2O)nc1
Return: 1820 nM

Enquiry: Any idea what GI50 was measured for COc1cc2cc(Oc3ccc(NC(=O)Nc4cccc(C(F)(F)F)c4)cc3)c(C)nc2cc1OCCN1CCCCC1 ?
Return: 1860 nM

----------
Catalogue of compounds with associated TGI
# Test system: SW-620 colon
# ASSAY_METHOD_TEXT: NCI tumour cell line growth inhibition, 48 h

Consider the following illustrative entries.
{"columns": ["COMPOUND", "TESTED_SYSTEM", "TGI"],
 "data": [
  ["CCN(CC)CCNC(=O)c1ccc([N+](=O)[O-])cc1OC", "SW-620 colon", "> 100 µM"],
  ["O=C1C2=C(c3ccccc31)C(c1ccc(Cl)cc1)N1C(=O)CCSC1=N2 (centres undefined)", "SW-620 colon", "> 100 µM"],
  ["Cn1cc(-c2ccc(=O)n(Cc3cccc(-c4ncc(OCCN5CCOCC5)cn4)c3)n2)cn1", "SW-620 colon", "> 100 µM"],
  ["COc1cc([C@@H]2c3cc4c(cc3[C@H](OC3OC5COC(C(C)C)OC5C(O)C3O)C3COC(=O)[C@@H]32)OCO4)cc(OC)c1O (some centres undefined)", "SW-620 colon", "22.5 µM"],
  ["CC1=C2C(=O)O[C@@H](c3ccoc3)[C@]2(C)CCC1=O", "SW-620 colon", "> 100 µM"]
]}

Enquiry: Look up TGI: CCCCCCCCCCCCc1ccc(C(=O)/C=C/C(=O)O)cc1
Return: 3.67 µM

Enquiry: // TGI lookup, key: CCOC(=O)c1c(O)[nH]c(=O)c(CC)c1C
Return: > 100 µM

Enquiry: Quick check: TGI of O=C1Nc2cccc3ncn(c23)C2=C1CCCC2 ?
Return: > 100 µM

Enquiry: Return reported TGI; argument: CCCCN(CCCC)C(=O)C(=O)CC(=O)c1ccc(Br)cc1
Return: > 100 µM

----------
# System: SNB-19 CNS
# ASSAY_METHOD_TEXT: NCI tumour cell line growth inhibition, 48 h
METRIC: TGI

// below: answered molecules
{"columns": ["MOLECULE", "OBSERVED_MEASUREMENT"],
 "data": [
  ["COc1cc(C2CC(c3cccc(Nc4ccncc4)c3)=NN2c2cc(Cl)cc(Cl)c2)cc(OC)c1OC (centres undefined)", "3.02 µM"],
  ["CCOC(=O)c1c(O)[nH]c(=O)c(CC)c1C", "> 100 µM"],
  ["CCCCCCCCCCCCCCCCCCNC(=O)[C@H]1CSC(c2ccc(OC)c(F)c2)N1 (some centres undefined)", "> 52.1 µM"],
  ["CC1=COC(=O)c2ccccc2N1", "> 100 µM"],
  ["O=C1C2=C(c3ccccc31)C(c1ccc(Cl)cc1)N1C(=O)CCSC1=N2 (centres undefined)", "> 100 µM"]
]}

Enquiry: Fill in the blank: the reported TGI of Nc1ccn(C=C=CCO)c(=O)n1 is ____.
Return: > 1000 µM

Enquiry: # input molecule: CC(C)Nc1[nH]c(C(=O)c2ccccc2)c(N)c1C(=S)Nc1ccccc1 ; wanted: its TGI
Return: > 100 µM

Enquiry: Given the molecule COc1ccccc1C(=O)/C=C/c1cc2cccc(OC)c2[nH]c1=O , what is its reported TGI?
Return: 1.47 µM

Enquiry: Entry CN(C)CCN1C(=O)CC[C@@]2(C)C1=CC[C@@H]1[C@@H]2CC[C@@]2(C)[C@H]1CC[C@]2(C)O has what TGI?
Return: > 100 µM

----------
# System: NCI-H522 lung
# ASSAY_METHOD_TEXT: NCI tumour cell line growth inhibition, 48 h; in the data active means GI50 below about 0.43 µM; inactive means the rest
The reply should name one outcome from 1 for active, -1 for inactive

{"columns": ["COMPOUND", "ASSIGNED_LABEL"],
 "data": [
  ["Cc1ccc(-c2c(C#N)c(N)nc(N3CCOCC3)c2C#N)o1", -1],
  ["CCCCCCCCCCCCCCCCCCNC(=O)[C@H]1CSC(c2ccc(OC)c(F)c2)N1 (stereo partly drawn)", -1],
  ["COc1cc2cc(Oc3ccc(NC(=O)Nc4cccc(C(F)(F)F)c4)cc3)c(C)nc2cc1OCCN1CCCCC1", -1],
  ["COc1cc2c(cc1OC)C(=O)C(Br)CC2 (stereo not drawn)", -1],
  ["COc1ccc(N(C)c2nc(C)nc3ccccc23)cc1", 1],
  ["O=C1c2cc3c(cc2-c2c1c1cc(Cl)c(Cl)cc1c(=O)n2CCCn1ccnc1)OCO3", 1],
  ["C[C@H]1[C@H](OC(=O)CCC(=O)O)O[C@@H]2O[C@]3(C)CC[C@H]4[C@H](C)CC[C@@H]1[C@@]24OO3", 1],
  ["Nc1cccc2c1C(=O)N(C1CCC(=O)NC1=O)C2=O (stereo not drawn)", -1]
]}

Enquiry: How did this test come out for O=C(c1ccccc1)c1nn(-c2ccc(Cl)cc2)c2nc3nc(-c4ccccc4)cc(=O)n3nc12 ?
Return: -1

Enquiry: // return assay outcome for COc1ccc(/C=C2\CN(C(=O)CCN3CCC(=NO)CC3)C/C(=C\c3ccc(OC)cc3)C2=O)cc1
Return: -1

Enquiry: Each compound tested received a call. Report the one for O=c1c(Cl)nnc2sc3ccccc3n12 .
Return: -1

Enquiry: Outcome logged for Cc1ccc(S(=O)(=O)NC(CCC(=O)Nc2ccc(Cl)cc2)C(=O)Nc2ccc(Cl)cc2)cc1 (stereo not drawn) in this assay:
Return: -1

Enquiry: Hey, what did the test say about CC(=O)c1ccc(Nc2cc(-n3ccnc3)nc3ccccc23)cc1 ?
Return: -1

Enquiry: Could you check what this test reported for Cc1cc2c(C)c3cc(C)c(N)cc3nc2cc1N ?
Return: -1

Enquiry: Any idea what this test logged for O=C1/C(=C\c2ccc(Cl)cc2)CN(C(=S)Nc2ccccc2)C/C1=C\c1ccc(Cl)cc1 ?
Return: -1

Enquiry: Assay result, entry OB([O][Hg][c]1ccccc1)[O][Hg][c]1ccccc1 — outcome?
Return: 1

Enquiry: What call does the record list for CC12OC(C(=O)C13CC3)C1C(=O)c3ccccc3C(=O)C12 (stereo not drawn) ?
Return: -1

Enquiry: I'd appreciate the recorded outcome for O=C(Nc1n[nH]c2nc(-c3ccco3)c(Br)cc12)C1CC1 from this test.
Return: -1

----------
# Tested on: HOP-18 NSCLC
# ASSAY_METHOD_TEXT: NCI tumour cell line growth inhibition, 48 h
METRIC: TGI

Known TGI results, listed for orientation:
{"columns": ["COMPOUND", "TGI"],
 "data": [
  ["O=C(O)CN(c1ccc(Cl)cc1)S(=O)(=O)c1ccccc1", "> 100 µM"],
  ["O=[N+]([O-])c1ccc(-c2ccc(/C=N/n3c(-c4ccc(Cl)cc4)n[nH]c3=S)o2)cc1", "> 100 µM"],
  ["COc1ccc(/C=C2/CCCC/C2=N/O)cc1", "> 100 µM"],
  ["O/N=C1/C(=C/c2ccc(F)cc2)CCCC1C(NO)c1ccc(F)cc1 (stereo not drawn)", "87.3 µM"],
  ["N[C@H]1C2C3CC4C5CC(C42)C1(c1ccccc1)C53 (stereo partly drawn)", "> 100 µM"]
]}

Enquiry: Which TGI is reported with HOP-18 NSCLC for this entry: Cc1cc(Br)cc(C)c1NC(=O)C(=O)CC(=O)c1sc(-n2nc(-c3ccccc3)cc2-c2ccccc2)nc1C ?
Return: > 100 µM

Enquiry: Lab request: please report TGI under test system HOP-18 NSCLC for CCOc1ccc(N2C(=O)C3c4[nH]c5ccccc5c4C4CCC(C(C)(C)C)CC4C3C2=O)cc1 (stereo not drawn)
Return: > 100 µM
